Test: Inhibition of interleukin-23 binding to rat interleukin-23 receptor incubated for 2 hrs by competitive binding ELISA
pIC50: −log10 of the molar value. *1 amine or outer side, *2 acyl side, *3 side chain or, on linkers, in order; H or OH if unused. Where a SMILES comes first, the peptide text is derived from it. Bridges are numbered along the chain shown (N, C = ends). [ ]: non-standard residue; d: D form. Abu(4-yl) = O=C([C@H](CC[*:3])N[*:1])[*:2]; 2Nal = N[C@@H](Cc1ccc2ccccc2c1)C(=O)O; AEF = NCCOc1ccc(C[C@H](N)C(=O)O)cc1; αMeL = CC(C)C[C@](C)(N)C(=O)O
Exercise: for every item that follows, state its recorded pIC50.

Recorded pIC50, per entry:
compound	pIC50
CC(=O)NCCCC[C@H](NC(=O)[C@](C)(CC(C)C)NC(=O)[C@H](Cc1ccc2ccccc2c1)NC(=O)[C@H](Cc1ccc(OCCN)cc1)NC(=O)[C@@H]1CSCC[C@H](NC(C)=O)C(=O)N[C@@H](CCC(N)=O)C(=O)N[C@@H]([C@@H](C)O)C(=O)N[C@@H](Cc2c[nH]c3ccccc23)C(=O)N[C@@H](CCC(N)=O)C(=O)N1)C(=O)N[C@@H](CC(N)=O)C(=O)N[C@@H](CC(N)=O)C(N)=O (Ac-[Abu(4-yl)]QTWQC[AEF][2Nal][αMeL]K(Ac)NN-NH2; thioether 1-6)	> 8.00
CC(=O)N[C@H](C(=O)N[C@@H](CN)C(=O)N[C@H](C(=O)N[C@@H](Cc1c[nH]c2ccccc12)C(=O)N[C@@H](CCC(N)=O)C(=O)N[C@H](C(=O)N[C@@H](Cc1ccc(OCCN)cc1)C(=O)N[C@@H](Cc1ccc2ccccc2c1)C(=O)N[C@@](C)(CCCCN)C(=O)N[C@@H](CCC(=O)O)C(=O)N[C@@H](CC(N)=O)C(=O)NCC(N)=O)C(C)(C)S)[C@@H](C)O)C(C)(C)S	7.00 to 7.60

We next turn to a different compound, shown below.
[ask] Value lookup for pIC50; key = `COc1ccc(C[C@H](NC(=O)[C@@H](NC(=O)[C@H](CCC(N)=O)NC(=O)[C@H](Cc2c[nH]c3ccccc23)NC(=O)[C@@H](NC(=O)[C@H](CCC(N)=O)NC(=O)[C@@H](NC(=O)CC(C)C)C(C)(C)S)[C@@H](C)O)C(C)(C)S)C(=O)N[C@@H](Cc2ccc3ccccc3c2)C(=O)N[C@@](C)(CCCCN)C(=O)N[C@@H](CCCCNC(C)=O)C(=O)N[C@@H](CC(N)=O)C(=O)NCC(N)=O)cc1`
[reply] 7.00 to 7.60

Measured values drawn from ChEMBL document CHEMBL4417631 for this set.
